Data provenance: the nanobody polyreactivity screen of Harvey et al. (2022)

# assay.remarks: yeast display, Sf9 membrane polyspecificity reagent, FACS + sequencing; frameworks hold sequencing errors
assay.metric: polyreactivity (PSR sort gate)

>>> endpoint_result("QVQLVESGGGLVQAGGSLRLSCAASGRIFDKYAMGWYRQAPGKERELVAAITRSGGRTYYADSVKGRFTISRDNAKNTVYLQMNSLKPEDTAVYYCAARYVSRFDWGQGTQVTVSS")
"high polyreactivity"
>>> endpoint_result("QVQLVESGGGLVQAGGSLRLSCADSGFIIGRYTMGWYRQAPGKERELVAAISFRGGSTYYADSVKGRFTISRDNAKNTVYLQMNCLKPEDTAVYYCAAYSSGPYGFDYWGQGTQVTVSS")
"high polyreactivity"

* * *

# assay.remarks: yeast display, Sf9 membrane polyspecificity reagent, FACS + sequencing; frameworks hold sequencing errors
assay.metric: polyreactivity (PSR sort gate)

>>> endpoint_result("QVQLVESGGGLVQAGGSLRLSCAASGRTFGGYALGWYRQAPGKARELVAAITWSDTSTYYADSVKGRFRFSRDNAKNTVYLQMNSLKPEDTAVYYCAAEQWYWWDDYWGKGTQVTVSS")
"high polyreactivity"
>>> endpoint_result("QVQLVESGGGLVQAGGSLRLSCAASGLYAMGWYRQAPGKERELVADINSSGGSITNYADSVKGRFTISRDNAKNTVYLQMNSLKPEDTAVYYCAAPALGNYFYGYDYWGQGTQVTVSS")
"low polyreactivity"
>>> endpoint_result("QVQLVESGGGLVQAGGSLRLSCAASGYTFLDYAMGWYRQAPGKERELVAAINSGGSTYYADSEKGRFTISRDNAKNTVYLQMNSLKPEDTAVYYCAVDPPYSYSLSRYGYWGQGTQVTVSS")
"low polyreactivity"
>>> endpoint_result("QVQLVESGGGLVQAGGSLRLSCAASGRTFGHYAMGWYRQAPGKERELVAAISCRGTSTYYADSVKGRFTISRDNAKNTVYLQMNSLKPEDTAVYYCAAVSVTSYRYDYWGQGTQVTVSS")
"high polyreactivity"

Can you look up the measured polyreactivity (PSR sort gate) of `QVQLVESGGGLVQAGGSLRLSCAASGFTFIDYAMGWYRQAPGKERALVAAITSRGGSTYYADSVKGRFTISRDNAKNTVYLQMNSLKPEDTAVYYCNAGSSFWYAYEYWGQGTQVTVSS` for me?
high polyreactivity

* * *

# assay.remarks: yeast display, Sf9 membrane polyspecificity reagent, FACS + sequencing; frameworks hold sequencing errors
assay.metric: polyreactivity (PSR sort gate)

Recorded polyreactivity (PSR sort gate), per entry:
>>> endpoint_result("QVQLVESGGGLVQAGGSLRLSCAASGLIFGPYAMGWYRQAPGKERELVAGISRGGSTYYADSVKGRFTISRDNAKNTVYLQMNSLKPEDTAVYYCNAYTYPPYYSKWVRYRYDYWGQGTQVTVSS")
"high polyreactivity"
>>> endpoint_result("QVQLVESGGGLFQAGGSLRLSCAASGSIFGHYAMGWYRQAPGKERELVAAISYSGGSTYYADSVKGRFTISRDNAKNTVYLHMNSLKPEDTAVYYCNADLYDAGSEMDYWGQGTQVTVSS")
"high polyreactivity"
>>> endpoint_result("QVQLVESAGGLVQEGGSLRLSCAASGLTFYGNAMGWYRQAPGKERELVAAISSSGGTTSYADSVKGRFTISRDNAKNTVYLQFNSLKPEDTAVYYCAARPSGGYESTRTRDYWGQGTQVTVSS")
"low polyreactivity"
>>> endpoint_result("QVQLVESGGGLVQAGGSLRLSCAASGFNFYYYAMGWYRQAPGKERELVAVLTESGSSTYYADSVKGRFTISRDNAKNTVYLQMNSLKPEDSAVYYCNADFWPFTGKYDSVHLDYWGQATQVTVSS")
"low polyreactivity"

Moving on to another sequence below.
Requested read-out: polyreactivity (PSR sort gate). Entry: `QVQLVESGGGLVQAGGSLRLSCAASGRIFYYNAMGWYRPAPGKVRELVAVMTGGGSTNYADSVKGRFTISRDNAKNTVYLQMNSLKPEDTAVYYCAARRAWGTKYHGYDYWGQGTQVTVSS`
low polyreactivity
